assay: antimalarial activity against Dd2 strain (AID 2302); settings: P. falciparum Dd2 in RBCs, LDH growth readout, 72 h; at 2 µM
Calls of active or inactive are those of the source.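 The calls were made as follows: active = growth inhibition above 50% at the single 2 µM test dose, taken to imply half-maximal potency below 2 µM; inactive = the rest.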
Your answer must be one of the following: active, inactive

# Compound, Class Assignment
measured = [
    ("Cc1ccccc1C1CCN(C2CCC(NC(=O)/C=C/c3ccc(F)cc3)CC2)CC1 (stereo unspecified)", "inactive"),
]

Assay result, entry O=c1cc(NCCCNC2CCOc3c(Cl)cccc32)[nH]c2ccccc12 (stereo unspecified) — outcome? inactive

Now this one: CC(CNCc1cn(Cc2cc(Br)cc(Br)c2)c2ccccc12)CNc1cc(=O)c2ccccc2[nH]1 (stereo unspecified) active
